target: CDK2/cyclinE (h) (Homo sapiens); assay: Kinase profiling C3.4 CDK2/cyclinE human; type: biochemical; conditions: test concentration of 10^−6 M
# reported C3.4 score; entries follow

Look over these answered cases.
{"Structure string": "CN1CCCC(=O)NCCCc2cc(ccn2)-c2ncnc(n2)Nc2cccc(c2)C1", "C3.4 score": "2 (Score 2 = 30-60% inhibition)"}
{"Structure string": "O=C1CN2CCN(CC2)Cc2cc(Cl)cc(c2)Nc2ncnc(n2)-c2ccnc(c2)CCCN1", "C3.4 score": "4 (Score 4 = >80% inhibition)"}
{"Structure string": "O=C1CN2CCN(CC2)Cc2cccc(c2)Nc2ncnc(n2)-c2cccc(c2)NCCN1", "C3.4 score": "2 (Score 2 = 30-60% inhibition)"}

Kindly review the next molecule as well.
Inquiry: Fill in the blank: the reported C3.4 score of `O=C1CN2CCN(CC2)Cc2cccc(c2)Nc2ncnc(n2)-c2ccc(F)c(c2)CCCN1` is ____.
Reply text: 4 (Score 4 = >80% inhibition)

====

Recorded C3.8 score, one value per entry.
Target: CDK7/cyclinH/MAT1 (h) (Homo sapiens)
Sequence (P50613 whole entry): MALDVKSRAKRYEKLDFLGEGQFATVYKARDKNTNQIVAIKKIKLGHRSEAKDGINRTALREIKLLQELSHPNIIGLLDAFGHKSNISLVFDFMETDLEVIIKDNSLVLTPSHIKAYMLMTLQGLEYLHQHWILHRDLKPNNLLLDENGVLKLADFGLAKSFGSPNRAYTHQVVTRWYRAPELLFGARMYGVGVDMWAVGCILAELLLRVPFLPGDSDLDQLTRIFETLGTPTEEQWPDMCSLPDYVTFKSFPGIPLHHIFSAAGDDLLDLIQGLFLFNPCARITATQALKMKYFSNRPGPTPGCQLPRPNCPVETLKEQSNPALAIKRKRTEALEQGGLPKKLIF
Sequence (P51946 whole entry partner): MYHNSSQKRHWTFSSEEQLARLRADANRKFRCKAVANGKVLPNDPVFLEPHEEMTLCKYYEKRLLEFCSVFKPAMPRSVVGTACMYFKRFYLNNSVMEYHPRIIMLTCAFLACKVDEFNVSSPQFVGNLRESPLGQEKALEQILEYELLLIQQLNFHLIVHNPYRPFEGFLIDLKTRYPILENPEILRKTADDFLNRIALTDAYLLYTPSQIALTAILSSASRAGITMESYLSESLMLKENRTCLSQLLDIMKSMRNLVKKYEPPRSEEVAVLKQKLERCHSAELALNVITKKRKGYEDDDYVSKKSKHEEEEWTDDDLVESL
Sequence (P51948 whole entry partner): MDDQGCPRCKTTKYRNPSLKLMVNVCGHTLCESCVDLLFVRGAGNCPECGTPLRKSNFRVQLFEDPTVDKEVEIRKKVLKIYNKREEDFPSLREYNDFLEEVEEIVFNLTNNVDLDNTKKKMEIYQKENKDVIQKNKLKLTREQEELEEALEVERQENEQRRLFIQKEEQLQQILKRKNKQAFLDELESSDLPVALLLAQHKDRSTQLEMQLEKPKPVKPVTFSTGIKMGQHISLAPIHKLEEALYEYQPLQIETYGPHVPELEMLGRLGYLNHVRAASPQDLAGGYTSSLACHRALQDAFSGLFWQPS
Assay: Kinase profiling C3.8 CDK7/cyclinH/MAT1 human
Type: biochemical
Conditions: CDK7/cyclinH/MAT1, test concentration of 10^−6 M
Procedure: The in vitro inhibition of a panel of kinases was assessed using either the glass-fiber filter technology as described by Davies, S. P. et al., Biochem J. (2000), 351; p. 95-105. In the glass-fiber filter technology the activity of the kinase of interest is measured using an appropriate substrate that is incubated with the aforementioned kinase protein in the presence of (^33P) radiolabeled ATP. […]

Example molecules with recorded C3.8 score:
{"Molecule": "O=C1CCN2CCN(CC2)Cc2cccc(c2)Nc2ncnc(n2)-c2ccnc(c2)NCCCN1 [Compound 22]", "Measured parameter": "C3.8 score", "Result": "1 (Score 1 = 10-30% inhibition)"}
{"Molecule": "O=C1CN2CCN(CC2)Cc2cccc(c2)Nc2ncnc(n2)-c2ccnc(c2)CCCN1 [Compound 9]", "Measured parameter": "C3.8 score", "Result": "2 (Score 2 = 30-60% inhibition)"}
{"Molecule": "O=C1NCCCc2cncc(c2)-c2ncnc(n2)Nc2cccc(c2)CN[C@H]1CO [Compound 81]", "Measured parameter": "C3.8 score", "Result": "1 (Score 1 = 10-30% inhibition)"}
{"Molecule": "CN1CCCc2cc(ccn2)-c2ncnc(n2)Nc2cccc(c2)CNC(=O)C1 [Compound 7]", "Measured parameter": "C3.8 score", "Result": "2 (Score 2 = 30-60% inhibition)"}

Now look at this one.
Inquiry: Given the molecule CN1CC(=O)NCCCc2cc(ccn2)-c2ncnc(n2)Nc2cccc(c2)C1 [Compound 8] , what is its reported C3.8 score?
Reply text: 2 (Score 2 = 30-60% inhibition)

====

target: CDK5/p35 human (Homo sapiens, UniProt Q00535); test: Kinase profiling C3.6 CDK5/p35 human; format: biochemical; settings: CDK5/p35, test concentration of 10^−6 M
Sequence (Q00535 whole entry): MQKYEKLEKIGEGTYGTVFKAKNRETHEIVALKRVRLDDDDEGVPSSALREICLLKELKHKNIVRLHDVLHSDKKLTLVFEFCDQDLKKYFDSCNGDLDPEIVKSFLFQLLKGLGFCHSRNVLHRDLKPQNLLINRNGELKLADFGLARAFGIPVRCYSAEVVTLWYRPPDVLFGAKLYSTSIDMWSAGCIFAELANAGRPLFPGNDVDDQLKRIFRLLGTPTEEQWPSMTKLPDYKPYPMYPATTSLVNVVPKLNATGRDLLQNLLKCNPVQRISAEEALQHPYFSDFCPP
Sequence (Q15078 whole entry partner): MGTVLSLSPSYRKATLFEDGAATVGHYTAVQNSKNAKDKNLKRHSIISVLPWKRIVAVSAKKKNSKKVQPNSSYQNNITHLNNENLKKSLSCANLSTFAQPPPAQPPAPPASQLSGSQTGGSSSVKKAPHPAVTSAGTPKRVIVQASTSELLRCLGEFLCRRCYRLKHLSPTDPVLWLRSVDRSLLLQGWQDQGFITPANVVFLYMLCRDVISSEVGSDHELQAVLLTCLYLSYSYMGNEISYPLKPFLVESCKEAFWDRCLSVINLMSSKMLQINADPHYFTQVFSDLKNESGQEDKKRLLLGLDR
Measured parameter: C3.6 score

{"Compound": "CCN1CCCc2cc(ccn2)-c2ncnc(n2)Nc2cccc(c2)CCNC(=O)C1 [Compound 30]", "C3.6 score": "4 (Score 4 = >80% inhibition)"}
{"Compound": "O=C1CC2CCN(CCCc3cc(ccn3)-c3ncnc(n3)Nc3cccc(c3)CCN1)CC2 [Compound 27]", "C3.6 score": "2 (Score 2 = 30-60% inhibition)"}
{"Compound": "CN1CCC(=O)NCCNc2cc(ccn2)-c2ncnc(n2)Nc2cccc(c2)C1 [Compound 20]", "C3.6 score": "3 (Score 3 = 60-80% inhibition)"}

# context switch: different compound, same C3.6 score
Inquiry: I am curious: what C3.6 score value has been reported for O=C1NCCNc2cc(ccn2)-c2ncnc(n2)Nc2cccc(c2)CN2CCC[C@H]12 [Compound 18] ?
Reply text: 2 (Score 2 = 30-60% inhibition)
